measurement_description: chemical genetic growth profiling, strain panel (AID 1159580);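 note: tested at 20 µM; growth read once vehicle control cultures reached saturation at 30 °C; 1 = growth at the plate median or of vehicle wells; lower values mean less growth of the strain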
protocol_conditions: S. cerevisiae deletion strains, growth OD, locus YMR058W, strain fet3, hits give low values
The whole screen tested about 5,500 compounds, of which about 2,000 (36%) were called active. About 18% were inconclusive and are not listed. The list shows a part of the results.
// values below are reported normalized growth

Examples with answers:
[
  {
    "molecule": "CNC(C)[C@H](O)c1ccccc1 (stereo partly specified)",
    "experimental_readout": "normalized growth",
    "observed_measurement": "0.999 (inactive)"
  },
  {
    "molecule": "CC1=C(C(C)O)C2=NC1C=c1[nH]c(c(C)c1C(C)O)=Cc1[nH]c(c(CCC(=O)O)c1C)C=c1[nH]c(c(C)c1CCC(=O)O)=C2 (stereo unspecified)",
    "experimental_readout": "normalized growth",
    "observed_measurement": "0.943 (inactive)"
  },
  {
    "molecule": "COc1cc2c(cc1OC)Cc1cc(OC)c(OC)cc1Cc1cc(OC)c(OC)cc1C2",
    "experimental_readout": "normalized growth",
    "observed_measurement": "1.03 (inactive)"
  },
  {
    "molecule": "ClC1=C(Cl)C2(Cl)C3C(Cl)C=CC3C1(Cl)C2(Cl)Cl (stereo unspecified)",
    "experimental_readout": "normalized growth",
    "observed_measurement": "0.998 (inactive)"
  },
  {
    "molecule": "CC(Oc1ccccc1)C(=O)N[C@@H]1C(=O)N2[C@@H]1SC(C)(C)[C@@H]2C(=O)O (stereo partly specified)",
    "experimental_readout": "normalized growth",
    "observed_measurement": "1 (inactive)"
  }
]

Request the reported normalized growth associated with COc1cc2c(cc1OC)C(=O)OC2
0.999 (inactive)

Can you look up the measured normalized growth of CC1=C(/C=C/C(C)=C/C=C/C(C)=C/C=C/C=C(C)/C=C/C=C(C)/C=C/C2=C(C)C(=O)C(O)CC2(C)C)C(C)(C)CC(O)C1=O (stereo unspecified) for me?
1.08 (inactive)

Reported normalized growth, molecule O=C(O)C1(O)C[C@@H](O)C(O)[C@H](O)C1 (stereo partly specified) : ____
0.964 (inactive)

Data request, read-out normalized growth, for CN[C@@H](C)[C@@H](O)c1ccccc1
1.01 (inactive)

---

Item-by-item account of normalized growth
measurement_description: chemical genetic growth profiling, strain panel (AID 1159580);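 note: tested at 20 µM; growth read once vehicle control cultures reached saturation at 30 °C; 1 = growth at the plate median or of vehicle wells; lower values mean less growth of the strain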
protocol_conditions: S. cerevisiae deletion strains, growth OD, locus YGR229C, strain SMI1, hits give low values
Out of some 5,500 compounds screened, about 2,000 (36%) were called active. Inconclusive results (about 18%) are left out. Some of the results follow.
Quick one: just the number, no unit, thanks!

[
  {
    "compound": "C[C@H]1O[C@@H](n2cc(F)c(=O)[nH]c2=O)[C@H](O)[C@@H]1O",
    "normalized growth": 1.07
  },
  {
    "compound": "CC1=C(/C=C/C(C)=C/C=C/C(C)=C/C=C/C=C(C)/C=C/C=C(C)/C=C/C2=C(C)C(=O)C(O)CC2(C)C)C(C)(C)CC(O)C1=O (centres undefined)",
    "normalized growth": 0.982
  },
  {
    "compound": "CSc1nnnn1-c1c(C)cccc1C",
    "normalized growth": 0.966
  },
  {
    "compound": "CO[C@H]1[C@H](O)[C@H](O[C@H]2CC[C@]3(C)C4CC[C@]5(C)C(C6=CC(=O)OC6)CC[C@]5(O)C4CC[C@@H]3C2)O[C@@H](C)[C@@H]1O (some centres undefined)",
    "normalized growth": 1.03
  },
  {
    "compound": "CC(C)CC(NC(=O)C(Cc1ccccc1)NC(=O)CNC(=O)CNC(=O)C(N)Cc1ccc(O)cc1)C(=O)O (centres undefined)",
    "normalized growth": 0.963
  },
  {
    "compound": "CCOC(=O)c1cnc2cc(C)nn2c1C",
    "normalized growth": 0.983
  },
  {
    "compound": "CC(=O)c1c(O)c(C)c(O)c2c1oc1c(C(C)=O)c(O)c(C)c(O)c12",
    "normalized growth": 0.901
  },
  {
    "compound": "COCc1nc2c([nH]1)c(=O)n(C)c(=O)n2CC(C)C",
    "normalized growth": 0.993
  }
]

Query: normalized growth; subject: CCOC(=O)c1c(C)cc(O)c(C=O)c1O
0.0734

normalized growth for CN(C)C(=S)SSC(=S)N(C)C ?
0.0575

Recorded normalized growth of c1ccc(N=Nc2ccccc2)cc1 , please.
0.966

Would you kindly share the measured normalized growth for ClC1=C(Cl)C2(Cl)C3C4CC(C5OC45)C3C1(Cl)C2(Cl)Cl (centres undefined) ?
0.971

Suppose we examine the compound CCOC(=O)C12CC1/C(=N\O)c1ccccc1O2 (centres undefined) ; what normalized growth value has been reported?
0.991

Need normalized growth of C=C1C([C@]2(C)C(CC(=O)OC)[C@@](C)(COC(C)=O)OC(=O)C[C@@H]2OC(C)=O)[C@@H](OC=O)[C@H](OC(=O)C(O)C(C)CC)[C@@]2(C)[C@H](c3ccoc3)CC(=O)C12O (some centres undefined) , thanks.
1.06

normalized growth lookup needed for COc1ccc(S(=O)(=O)Nc2ccccc2Oc2ccc(Cl)cc2Cl)cc1OC , thanks.
0.995

Consider the compound shown here: C=CCN1CCc2cc(O)c(O)cc2C(c2ccccc2)C1 (centres undefined) What is its recorded normalized growth?
0.917
